Biological target: D2 receptor
Assay: Affinity to D2 receptor
Conditions: read-out: Affinity to D2 receptor (MIC50; mole concentration for 50% inhibition of binding); 2.0 nM spiperone
parameterMeasured: IC50

Below: 4 molecules and their reported IC50.
[[record]]
molecule = "CCCNC(CCC)Cc1cccc2[nH]ccc12.Cl (centres unmarked) [Compound No. 21, Hydrochloride]"
parametermeasured = "IC50"
testresult = "> 10 µM"

[[record]]
molecule = "C#CCN(C)[C@H](C)Cc1ccccc1 [Selegiline, reference compound]"
parametermeasured = "IC50"
testresult = "> 10 µM"

[[record]]
molecule = "CC(C)C[C@H]1C(=O)N2CCC[C@H]2[C@]2(O)O[C@](NC(=O)[C@@H]3C=C4c5cccc6[nH]c(Br)c(c56)C[C@H]4N(C)C3)(C(C)C)C(=O)N12 [Bromocriptine, reference compound]"
parametermeasured = "IC50"
testresult = "0.01 µM"

[[record]]
molecule = "CCCNC(CCC)Cc1cc2ccccc2o1.Cl (centres unmarked) [Compound No. 25, Hydrochloride]"
parametermeasured = "IC50"
testresult = "> 10 µM"


Please examine the following record next.
Task: # get_value(readout= IC50, system= D2 receptor) for CCCNC(CCC)Cc1c[nH]c2ccccc12.Cl (centres unmarked) [Compound No. 20, Hydrochloride]
Output: > 10 µM
